Taken from ChEMBL document CHEMBL3792290.

Assay: Lipophilicity, logD of the compound
Assay type: physicochemical
Details: octanol/water
measurementKind: logD

1) CC(C)N(Cc1ccccc1)C(=O)c1ccc2ccccc2c1 = 4.2

----------
Assay: Inhibition of human gamma-secretase expressed in CHO cells assessed as effect on Notch1 processing at 100 uM using N100-Flag as substrate incubated for 4 hrs by Western blot analysis relative to DMSO control
Assay type: cell-based
measurementKind: inhibition (INH)

1. COc1ccc(CN(C(=O)c2ccc3ccccc3c2)C(C)C)cc1 = Active
2. COc1cccc2cc(C(=O)N(Cc3ccc(Cl)c(F)c3)C(C)C)oc12 = Not Active
3. CC(C)N(Cc1ccc(Cl)c(Cl)c1)C(=O)c1ccc2ccccc2c1 = Not Active
4. O=C(c1ccc2ccccc2c1)N(Cc1ccccc1)C1CC1 = Not Active
5. CC(C)N(Cc1ccc(N2CCCCC2)cc1)C(=O)c1ccc2ccccc2c1 = Active
6. CC(C)N(Cc1ccccc1)C(=O)c1cnc2ccccc2c1 = Active
7. CC(C)N(Cc1ccc(F)c(F)c1)C(=O)c1ccc2ccccc2c1O = Not Active
8. CC(C)N(Cc1ccccc1)C(=O)c1ccc2ccccc2c1 = Not Active
9. CC(C)N(Cc1ccc(Cl)c(Cl)c1)C(=O)c1cc2ccccc2o1 = Not Active
10. COc1cccc2cc(C(=O)N(Cc3ccc(F)c(Cl)c3)C(C)C)oc12 = Not Active
11. COc1ccc(CN(C(=O)c2ccc3ccccc3c2O)C(C)C)cc1 = Not Active

----------
Assay: Solubility of compound in PBS buffer at pH 7.4
Type: physicochemical
measurementKind: solubility

1. CC(C)N(Cc1ccccc1)C(=O)c1ccc2ccccc2c1 = 63 µM

----------
Molecular target: Gamma-secretase
Assay: Inhibition of human gamma-secretase expressed in CHO cells assessed as suppression of amyloid beta 42 production using C100-Flag as substrate incubated for 4 hrs by ELISA
Format: cell-based
pIC50: −log10 of the molar value.
measurementKind: pIC50

1. O=S(=O)(c1ccc(F)cc1)N(Cc1ccccc1OC1CCOCC1)c1cc(F)ccc1F = 6.40

----------
Reported inhibition values are given for each entry in this list.
Target: Gamma-secretase (Homo sapiens) (UniProt Q96BI3+Q9NZ42+Q8WW43+P49768+Q92542+P49810)
Experiment: Inhibition of purified human gamma-secretase expressed in CHO cells assessed as suppression of amyloid beta 40 production at 100 uM using C100-Flag as substrate incubated for 4 hrs by ELISA relative to DMSO control
measurementKind: inhibition (%)

1. CC(C)N(Cc1ccc(Cl)c(Cl)c1)C(=O)c1ccc2ccccc2c1 = 58
2. CC(C)N(Cc1cc(F)cc(F)c1)C(=O)c1ccc2ccccc2c1 = 21
3. O=C(c1ccc2ccccc2c1)N(Cc1ccccc1)C1CC1 = 37
4. CC(C)N(Cc1ccccc1)C(=O)c1ccc2ccccc2c1O = 67
5. COc1cccc(CN(C(=O)c2ccc3ccccc3c2)C(C)C)c1 = 19
6. CC(C)N(Cc1ccccc1)C(=O)c1ccccc1 = 10
7. CC(C)N(Cc1ccccc1)C(=O)c1ccc2occc2c1 = 14
8. CCOc1cccc2cc(C(=O)N(Cc3ccc(Cl)c(Cl)c3)C(C)C)oc12 = 58
9. CC(C)(C)N(Cc1ccccc1)C(=O)c1ccc2ccccc2c1 = 52
10. CC(C)N(Cc1ccc(N2CCCCC2)cc1)C(=O)c1ccc2ccccc2c1 = 38
11. CC(C)N(Cc1cccc(C#N)c1)C(=O)c1ccc2ccccc2c1 = 31
12. CC(C)N(Cc1ccccc1)C(=O)c1ccc(C(C)(C)C)cc1 = 85
13. COc1ccc(CN(C(=O)c2ccc3ccccc3c2O)C(C)C)cc1 = 33
14. CN(Cc1ccccc1)C(=O)c1ccc2ccccc2c1 = 15
15. CC(C)N(Cc1ccccc1)C(=O)c1cc2ccccc2o1 = 40
16. CC(C)N(Cc1ccccc1)C(=O)c1cnc2cc(Cl)ccc2c1O = 33
17. O=C(NCc1ccccc1)c1ccc2ccccc2c1 = 0
18. CC(C)N(Cc1ccc(C#N)cc1)C(=O)c1ccc2ccccc2c1 = 31
19. CC(C)N(Cc1ccccc1)C(=O)c1ccc(-c2ccccc2)cc1 = 27
20. COc1cc(CN(C(=O)c2ccc3ccccc3c2)C(C)C)cc(OC)c1 = 35
21. COc1cccc2cc(C(=O)N(Cc3ccc(F)c(Cl)c3)C(C)C)oc12 = 49
22. CC(C)N(Cc1ccc(Cl)c(Cl)c1)C(=O)c1ccc2ccccc2c1O = 41
23. CC(C)N(Cc1ccc(Cl)c(Cl)c1)C(=O)c1cc2ccccc2o1 = 51
24. CC(C)N(Cc1ccccc1)C(=O)c1ccc2ccccc2c1 = 58
25. Cc1c(C(=O)N(Cc2ccc(Cl)c(Cl)c2)C(C)C)oc2ccccc12 = 0
26. COc1cccc2cc(C(=O)N(Cc3ccc(Cl)c(F)c3)C(C)C)oc12 = 23
27. CC(C)N(Cc1ccccc1)C(=O)c1cnc2ccccc2c1 = 50
28. COc1cccc2cc(C(=O)N(Cc3ccc(Cl)c(Cl)c3)C(C)C)oc12 = 75
29. COc1ccc(CN(C(=O)c2ccc3ccccc3c2)C(C)C)cc1 = 47
30. CC(C)N(Cc1ccc(F)c(F)c1)C(=O)c1ccc2ccccc2c1O = 49
31. CC(C)N(Cc1cc(F)cc(F)c1)C(=O)c1ccc2ccccc2c1O = 27
32. CC(C)N(Cc1ccccc1)C(=O)c1cn(C)c2ccccc12 = 0
33. CC(C)N(Cc1ccc(F)c(F)c1)C(=O)c1ccc2ccccc2c1 = 34
34. CC(C)N(Cc1ccccc1)C(=O)c1cccc(Oc2ccccc2)c1 = 50

----------
Test: Permeability of compound from apical to basolateral side
Format: ADME
Details: not told; read-out: permeability
measurementKind: Papp A→B (×10⁻⁶ cm/s)

1. CC(C)N(Cc1ccccc1)C(=O)c1ccc2ccccc2c1 = 39.6

----------
Assay: Metabolic stability in human liver microsomes assessed as parent compound remaining after 60 mins
Format: ADME
Conditions: read-out: Stability
measurementKind: remaining at 1 h (%)

1) CC(C)N(Cc1ccccc1)C(=O)c1ccc2ccccc2c1 = 28

----------
Target: Gamma-secretase
Test: Inhibition of gamma-secretase (unknown origin) assessed as suppression of amyloid beta 42 production by cell-based assay
Design: species or system Homo sapiens
Below, each of the compounds is paired with its reported IC50 value.
measurementKind: IC50 (µM)

1. CC(C)N(Cc1ccccc1)C(=O)c1ccc2ccccc2c1O = 96
2. CCC(CC)N(Cc1ccc(C(=O)O)cc1)S(=O)(=O)c1ccc(Cl)cc1 = 0.13
3. CC(C)N(Cc1ccc(Cl)c(Cl)c1)C(=O)c1ccc2ccccc2c1O = 85
4. COc1ccc(CN(C(=O)c2ccc3ccccc3c2O)C(C)C)cc1 = 95
5. CC(C)N(Cc1ccc(Cl)c(Cl)c1)C(=O)c1ccc2ccccc2c1 = 135
6. O=S(=O)(c1ccc(F)cc1)N(Cc1ccccc1OC1CCOCC1)c1cc(F)ccc1F = 0.62
